B1: POU domain, class 2, transcription factor 2, residues 200 to 269; numbered along this chain, P09086 (parent)
chain: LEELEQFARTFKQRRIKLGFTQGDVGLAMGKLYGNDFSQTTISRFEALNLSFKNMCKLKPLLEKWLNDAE

variants of: B1; experiment: abundance fitness (aPCA) (normalised: wild type 0, dead -1); higher = more abundant; growth selection in yeast, the domain comes from the species named; details: Homo sapiens
Returns Condition met if the recorded abundance fitness is greater than or equal to -0.1, and Condition not met otherwise.

* G23N | Condition met
* G19V | Condition not met
* G26H | Condition not met
* Q22M | Condition met
* F52I | Condition met
* L48W | Condition not met
* Q39L | Condition met
* K59T | Condition not met
* N35H | Condition not met
* L4D | Condition not met
* D36A | Condition met
